# reported inhibition; entries follow
# system-tested: Nuclear receptor coactivator 3 (Homo sapiens) (UniProt Q9Y6Q9)
# Sequence (Q9Y6Q9 whole entry, looked up, the tested form may be a part): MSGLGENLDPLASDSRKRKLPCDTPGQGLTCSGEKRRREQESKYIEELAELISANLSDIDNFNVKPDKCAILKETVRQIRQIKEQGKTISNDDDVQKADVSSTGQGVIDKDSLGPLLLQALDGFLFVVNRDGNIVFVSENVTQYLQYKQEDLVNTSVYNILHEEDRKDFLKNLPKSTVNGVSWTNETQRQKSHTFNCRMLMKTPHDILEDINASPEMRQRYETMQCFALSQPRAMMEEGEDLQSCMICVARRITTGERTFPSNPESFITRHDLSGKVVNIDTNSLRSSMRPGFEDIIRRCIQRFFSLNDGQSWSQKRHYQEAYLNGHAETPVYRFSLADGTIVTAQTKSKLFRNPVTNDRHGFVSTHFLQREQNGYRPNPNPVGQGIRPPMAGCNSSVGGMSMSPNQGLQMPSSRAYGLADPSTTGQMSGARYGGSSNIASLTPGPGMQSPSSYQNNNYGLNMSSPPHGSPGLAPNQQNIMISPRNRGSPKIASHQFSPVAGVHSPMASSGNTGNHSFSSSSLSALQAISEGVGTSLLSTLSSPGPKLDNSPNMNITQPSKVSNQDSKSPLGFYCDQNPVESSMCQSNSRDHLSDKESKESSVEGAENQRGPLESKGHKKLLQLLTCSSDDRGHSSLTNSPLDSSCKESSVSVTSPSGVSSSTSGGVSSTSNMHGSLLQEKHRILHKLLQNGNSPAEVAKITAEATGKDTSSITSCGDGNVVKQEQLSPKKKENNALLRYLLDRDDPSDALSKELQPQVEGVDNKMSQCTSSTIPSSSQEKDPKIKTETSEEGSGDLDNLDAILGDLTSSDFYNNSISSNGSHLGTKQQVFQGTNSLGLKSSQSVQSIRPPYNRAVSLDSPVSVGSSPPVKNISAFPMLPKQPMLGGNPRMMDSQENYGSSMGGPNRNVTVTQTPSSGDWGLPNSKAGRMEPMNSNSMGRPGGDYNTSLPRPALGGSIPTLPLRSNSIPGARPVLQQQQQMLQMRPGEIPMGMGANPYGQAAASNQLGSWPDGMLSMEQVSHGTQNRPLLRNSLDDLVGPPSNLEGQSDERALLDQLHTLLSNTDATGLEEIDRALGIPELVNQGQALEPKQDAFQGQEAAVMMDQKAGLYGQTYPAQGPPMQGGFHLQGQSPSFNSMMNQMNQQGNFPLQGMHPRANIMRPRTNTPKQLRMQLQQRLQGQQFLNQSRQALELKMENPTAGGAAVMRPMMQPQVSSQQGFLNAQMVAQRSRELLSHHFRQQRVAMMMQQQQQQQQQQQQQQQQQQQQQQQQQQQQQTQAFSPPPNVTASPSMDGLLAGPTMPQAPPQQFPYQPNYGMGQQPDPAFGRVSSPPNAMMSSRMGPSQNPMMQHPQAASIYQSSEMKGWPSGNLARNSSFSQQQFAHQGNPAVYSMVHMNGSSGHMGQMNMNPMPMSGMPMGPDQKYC
# test: SRC3 coactivator transcriptional activity inhibitors, primary screen, cell-based, luminescence (AID 588352);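 further: 0% = DMSO-treated cells and 100% = gossypol-treated cells at 36 µM; higher means less SRC3-driven luciferase light from the GAL4 reporter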
# condition-set: HEK293 GAL4-SRC3 luciferase reporter, at 3.6 µM, active compounds read high
Screen size: about 360,000 compounds; about 620 (0.17%) were called active. This is one part of a sample in which actives are shown more often than they occur.
A number alone suffices; assume %.

>  <compound>
O=C(Cn1nc([N+](=O)[O-])nc1Br)NC1CCCCC1

>  <system-tested>
Nuclear receptor coactivator 3 (Homo sapiens) (UniProt Q9Y6Q9)

>  <inhibition, %>
5.25

$$$$
>  <compound>
O=C(O)c1ccccc1C(=O)NC1=NN(c2ccccc2)CC1

>  <system-tested>
Nuclear receptor coactivator 3 (Homo sapiens) (UniProt Q9Y6Q9)

>  <inhibition, %>
3.76

$$$$
>  <compound>
CCOC(=O)c1csc(CCNC(=O)c2oc3c(Cl)cc(C)cc3c2C)n1

>  <system-tested>
Nuclear receptor coactivator 3 (Homo sapiens) (UniProt Q9Y6Q9)

>  <inhibition, %>
-12.1

$$$$
>  <compound>
COc1cc(NC(=O)C2=C(C)OCCS2)c(Cl)cc1C(=O)NCCCN1CCCC(C)C1 (stereo not given)

>  <system-tested>
Nuclear receptor coactivator 3 (Homo sapiens) (UniProt Q9Y6Q9)

>  <inhibition, %>
-22.7

$$$$
>  <compound>
C[C@H](C(=O)CC(=O)OC(C)(C)C)[C@H](O)c1ccc(C(F)(F)F)cc1

>  <system-tested>
Nuclear receptor coactivator 3 (Homo sapiens) (UniProt Q9Y6Q9)

>  <inhibition, %>
4.25

$$$$
>  <compound>
CCN(CC(=O)Nc1c(F)cccc1F)C(=O)CN1c2cccc3cccc(c23)S1(=O)=O

>  <system-tested>
Nuclear receptor coactivator 3 (Homo sapiens) (UniProt Q9Y6Q9)

>  <inhibition, %>
-23.2

$$$$
>  <compound>
COc1ccc(C(=O)Nc2ccccc2C(=O)N/N=C/c2ccc(O)c(OC)c2)cc1

>  <system-tested>
Nuclear receptor coactivator 3 (Homo sapiens) (UniProt Q9Y6Q9)

>  <inhibition, %>
69.8

$$$$
>  <compound>
O=S(=O)(Cc1nnnn1-c1ccc(Br)cc1)c1ccc(F)cc1

>  <system-tested>
Nuclear receptor coactivator 3 (Homo sapiens) (UniProt Q9Y6Q9)

>  <inhibition, %>
-7.02

$$$$
>  <compound>
Nc1nc(SCC(=O)NNc2c(Cl)cc(Cl)cc2Cl)n[nH]1

>  <system-tested>
Nuclear receptor coactivator 3 (Homo sapiens) (UniProt Q9Y6Q9)

>  <inhibition, %>
18

$$$$

Value of inhibition reported for the compound CC(C)(CSc1nncn1/N=C/c1ccco1)NS(=O)(=O)c1ccc(Cl)cc1 is 0.37
